- target.of.assay: Grp94 (Canis lupus familiaris, UniProt P41148)
- Sequence (P41148 with tags, fused parts or gaps DELINS287-327GGGG): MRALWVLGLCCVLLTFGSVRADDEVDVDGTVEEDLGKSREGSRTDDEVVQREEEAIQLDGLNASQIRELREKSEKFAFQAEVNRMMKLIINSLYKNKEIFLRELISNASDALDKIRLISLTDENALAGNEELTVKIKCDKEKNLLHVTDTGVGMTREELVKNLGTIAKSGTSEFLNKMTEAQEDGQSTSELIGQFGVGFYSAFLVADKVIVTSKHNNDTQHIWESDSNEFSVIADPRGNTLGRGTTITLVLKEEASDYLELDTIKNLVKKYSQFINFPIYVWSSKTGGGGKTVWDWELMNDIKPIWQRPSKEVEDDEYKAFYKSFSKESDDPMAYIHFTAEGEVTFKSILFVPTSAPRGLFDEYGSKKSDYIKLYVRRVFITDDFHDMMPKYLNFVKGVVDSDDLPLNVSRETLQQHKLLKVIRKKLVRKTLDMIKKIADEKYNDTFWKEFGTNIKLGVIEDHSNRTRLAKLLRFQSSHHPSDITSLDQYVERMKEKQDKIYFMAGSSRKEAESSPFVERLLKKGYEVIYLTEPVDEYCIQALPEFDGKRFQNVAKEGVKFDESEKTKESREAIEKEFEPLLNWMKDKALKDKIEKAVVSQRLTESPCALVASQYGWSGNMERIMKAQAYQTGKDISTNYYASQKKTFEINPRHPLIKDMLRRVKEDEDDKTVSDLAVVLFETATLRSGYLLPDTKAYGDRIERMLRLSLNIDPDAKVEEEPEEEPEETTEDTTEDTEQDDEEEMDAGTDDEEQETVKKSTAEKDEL
- condition: read-out: Grp94; FP competition, 6 nM Cy3B-GM, 10 nM protein, 4° C. for 24 h

molecule | IC50
CC(C)NCCCn1c(Sc2cc(Cl)cc(-c3ncco3)c2)nc2c(N)ncnc21 | 1300 nM
CC(C)=Cc1cc(Cl)cc(Sc2nc3c(N)ncnc3n2CCCNC(C)C)c1 | 280 nM
CC(C)(CO)NCCn1c(Sc2ccc(Cl)cc2Cl)nc2c(N)ncnc21 | 1900 nM
C/C=C\c1cc(Cl)cc(Sc2nc3c(N)ncnc3n2CCCNC(C)C)c1 | 214 nM
C#CCCCn1c(Sc2cc(Cl)c(Cl)c(Cl)c2)nc2c(N)ncnc21 | 1660 nM
C#CCCCn1c(Sc2cc(Br)cc(I)c2)nc2c(N)ncnc21 [PDP-108A] | 133 nM
N#CCCCn1cnc(N)c2nc(Sc3cc(Cl)cc(Cl)c3)nc1-2 [PDP-93B] | > 100000 nM
C#CCCCn1c(Sc2ccc(Cl)c(Cl)c2)nc2c(N)ncnc21 | 420 nM
CC(C)(O)CNCCn1c(Sc2ccc(Cl)cc2Cl)nc2c(N)ncnc21 | 2300 nM
CC(C)NCCCn1c(Sc2ccc(Cl)cc2[N+](=O)[O-])nc2c(N)ncnc21 | > 5000 nM
CC(C)NCCCn1c(Sc2cc(Cl)cc(Cl)c2I)nc2c(N)ncnc21 | 680 nM

====

- target.of.assay: Grp94 (Canis lupus familiaris, UniProt P41148)
- condition: read-out: Grp94; FP competition, 6 nM Cy3B-GM, 10 nM protein, 4° C. for 24 h
Collected IC50 values appear next to each entry.
readout.label: IC50 (µM)

compound | unit.tag | modifier | value.reported
C#CCCCn1cnc(N)c2nc(Sc3cc(Br)cc(OC(F)(F)F)c3)nc1-2 [PDP-120B] | µM | > | 10
C#CCCCn1c(Sc2ccc(C#N)c(Cl)c2)nc2c(N)ncnc21 | µM | = | 3.45
C#CCCCn1cnc(N)c2nc(Sc3cc(C)ccc3C)nc1-2 | µM | = | 185
CC(C)NCCCn1c(Sc2cc(Cl)cc(-c3cn[nH]c3)c2)nc2c(N)ncnc21 | µM | = | 1.9

====

- target.of.assay: Grp94 (Canis lupus familiaris, UniProt P41148)
- condition: read-out: Grp94; FP competition, 6 nM Cy3B-GM, 10 nM protein, 4° C. for 24 h
pIC50: −log10 of the molar value.
// reported pIC50 per item
readout.label: pIC50

compound | value.reported
C#CCCCn1cnc(N)c2nc(Sc3ccc(-n4cccc4)cc3)nc1-2 | < 5.30
C#CCCCn1cnc(N)c2nc(Sc3cn(Cc4ccc(OC)cc4)c4ncc(Br)cc34)nc1-2 | < 5.00
C#CCCCCn1cnc(N)c2nc(Sc3cc(Cl)cc(Cl)c3)nc1-2 [PDP-112B] | < 5.00
C#CCCCn1c(Sc2cc(Br)cc3ccn(Cc4ccc(OC)cc4)c23)nc2c(N)ncnc21 | < 5.30
C#CCCn1cnc(N)c2nc(Sc3cc(Cl)cc(Cl)c3)nc1-2 | < 5.30
C#CCCCn1c(Sc2ccc(Cl)c3ccccc23)nc2c(N)ncnc21 | < 5.70
CC(C)NCCCn1c(Sc2cc(Cl)cc(Cl)c2)nc2c(N)nccc21 | 5.59
CC(C)NCCCn1c(Sc2cc(Cl)cc(-c3cccc(C(F)(F)F)c3)c2)nc2c(N)ncnc21 | 6.59
CC(O)C#Cc1cc(Cl)cc(Sc2nc3c(N)ncnc3n2CCCNC(C)C)c1 (stereo not drawn) | 5.13

====

- target.of.assay: Hsp90α (Homo sapiens, UniProt P07900)
- method.summary: biochemical
- condition: FP competition, 6 nM Cy3B-GM, 10 nM protein, 4° C. for 24 h

compound | IC50
C#CCCCn1cnc(N)c2nc(Sc3cc(Br)ccc3OC)nc1-2 | 5.9 µM
C#CCCCn1cnc(N)c2nc(Sc3cc(C)cc(C)c3)nc1-2 | > 100 µM
C#CCCCn1c(Sc2cc(Cl)nc(Cl)c2)nc2c(N)ncnc21 | > 5 µM
CC(CO)NCCn1c(Sc2ccc(Cl)cc2Cl)nc2c(N)ncnc21 (stereo not shown) | 7.6 µM
C#CCCCn1c(Sc2cc(C)cc(C)c2)nc2c(N)ncnc21 | > 300 µM
C#CCCCn1cnc(N)c2nc(Sc3ccc(OC)cc3OC)nc1-2 | > 100 µM
CC(Br)CCCn1cnc(N)c2nc(Sc3cc(Cl)cc(Cl)c3)nc1-2 (stereo not shown) [PDP-99B] | > 100 µM

====

- target.of.assay: UniProt:P41148
- condition: read-out: Grp94; FP competition, 6 nM Cy3B-GM, 10 nM protein, 4° C. for 24 h
pIC50: −log10 of the molar value.
Reported pIC50 values for the following compounds.

compound.smiles | pIC50
C#CCCCn1c(Cc2c(C)cc(C)cc2C)nc2c(N)ncnc21 | < 5.30
C#CCCCn1c(Sc2cn(Cc3ccc(OC)cc3)c3ncc(Br)cc23)nc2c(N)ncnc21 | < 5.00
C#CCCCn1cnc(N)c2nc(Sc3cc(Cl)cc4c(Cl)ccnc34)nc1-2 | < 5.30
CC(C)NCCCn1c(Sc2cccc3ccccc23)nc2c(N)nccc21 | < 5.30
